The measured values listed here are drawn from patent EP4741392A1.

Would you mind telling me the reported pIC50 of each entry?
tgt: BTK C481S (Homo sapiens, UniProt Q06187, C481S)
Sequence (Q06187 whole entry C481S): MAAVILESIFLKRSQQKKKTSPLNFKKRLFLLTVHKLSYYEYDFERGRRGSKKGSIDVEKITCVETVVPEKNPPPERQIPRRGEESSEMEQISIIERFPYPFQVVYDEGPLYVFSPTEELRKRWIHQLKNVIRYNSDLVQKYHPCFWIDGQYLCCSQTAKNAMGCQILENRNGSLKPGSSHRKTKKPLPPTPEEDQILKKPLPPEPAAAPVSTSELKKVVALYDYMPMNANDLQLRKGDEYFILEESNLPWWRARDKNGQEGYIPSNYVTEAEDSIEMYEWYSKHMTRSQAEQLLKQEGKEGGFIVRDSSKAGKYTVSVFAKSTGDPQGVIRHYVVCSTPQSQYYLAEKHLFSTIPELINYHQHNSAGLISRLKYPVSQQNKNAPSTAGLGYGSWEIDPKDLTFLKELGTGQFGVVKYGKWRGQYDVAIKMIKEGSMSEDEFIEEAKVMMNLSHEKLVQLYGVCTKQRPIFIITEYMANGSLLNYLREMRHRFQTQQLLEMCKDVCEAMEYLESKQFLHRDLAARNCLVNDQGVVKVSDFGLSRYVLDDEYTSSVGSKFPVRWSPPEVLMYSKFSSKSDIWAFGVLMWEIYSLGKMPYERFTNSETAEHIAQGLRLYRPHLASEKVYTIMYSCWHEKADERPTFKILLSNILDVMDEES
test summary: Kinase activity inhibition assay (HTRF TK Kit)
pIC50: −log10 of the molar value.

Consider COc1ccc(F)cc1C(=O)NCc1ccc(-c2nc(C(C)C(F)(F)F)cc3[nH]nc(N)c23)cc1 (single isomer, unassigned) [Example 3] . Its measured pIC50 is 8.30 to 9.00

Query COc1ccc(F)cc1C(=O)NCc1ccc(-c2nc(C(C)C(F)(F)F)c(-c3ncccn3)c3[nH]nc(N)c23)cc1 (single isomer, unassigned) [Example 7-2] yields pIC50 of 8.30 to 9.00

Recorded pIC50 (molecule `COc1ccc(F)cc1C(=O)NCc1ccc(-c2ncc(-c3ccc(CN4CCOCC4)cn3)c3[nH]nc(N)c23)cc1` ): ≥ 9.00

Recorded result, COc1ccc(F)cc1C(=O)NCc1ccc(-c2ncc(-c3ccc4c(n3)nc3n4C(C)COC3)c3[nH]nc(N)c23)cc1 (stereo not drawn) , pIC50: 7.30 to 8.30

Per the records, this molecule ( `COc1ccc(F)cc1C(=O)NCc1ccc(-c2ncc(-c3ccc(S(C)(=O)=O)cn3)c3[nH]nc(N)c23)cc1` ) has pIC50 equal to ≥ 9.00

Record `COc1ccc(F)cc1C(=O)NCc1ccc(-c2nc(C)c(-c3ncccn3)c3[nH]nc(N)c23)cc1` . Reported pIC50: 7.30 to 8.30

Record summary for `COc1ccc(F)cc1C(=O)NCc1ccc(-c2ncc(-c3ccc(C(=O)N4C[C@H](C)O[C@@H](C)C4)cn3)c3[nH]nc(N)c23)cc1` : reported pIC50 = 8.30 to 9.00

pIC50 measured on `COc1ccc(F)cc1C(=O)NCc1ccc(-c2ncc(-c3ccc(Cl)cn3)c3[nH]nc(N)c23)cc1` = 8.30 to 9.00

Record `COc1ccc(F)cc1C(=O)NCc1ccc(-c2ncc(-c3nc4cccnc4s3)c3[nH]nc(N)c23)cc1` , field pIC50: 8.30 to 9.00
